Each recorded value in this set is attributed to PubChem BioAssay AID504680.

biological target: Caspase-3 (Homo sapiens) (UniProt P42574); experiment: inhibition of recombinant caspase-3 activity – biochemical, luminescence, Caspase-Glo 3/7, counter-screen for UBC13 polyubiquitin inhibitor project, SAR follow-up (AID 504680); settings: recombinant caspase-3, Caspase-Glo luminescence, 60 min
Sequence (P42574 whole entry, looked up): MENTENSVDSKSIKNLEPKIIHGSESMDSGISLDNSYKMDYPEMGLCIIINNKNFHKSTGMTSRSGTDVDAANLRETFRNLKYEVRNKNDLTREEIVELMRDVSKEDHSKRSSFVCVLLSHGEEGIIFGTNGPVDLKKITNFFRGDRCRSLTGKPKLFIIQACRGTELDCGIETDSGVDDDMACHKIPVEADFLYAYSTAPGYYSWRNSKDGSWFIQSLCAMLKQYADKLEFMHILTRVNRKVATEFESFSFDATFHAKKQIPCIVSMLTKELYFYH
The source made the active and inactive calls.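 How the source made its calls: active means IC50 below 100 µM in the TR-FRET assay, unless also active in the caspase-3 counter assay; inactive means the rest, including compounds also active in caspase-3.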

>  <Compound>
CCOc1ccc2nc(N(CCCN(C)C)C(=O)c3ccc(S(=O)(=O)N4CCc5ccccc5C4)cc3)sc2c1

>  <IC50>
> 100 µM (inactive)

$$$$
>  <Compound>
O=C(Nc1ccc(F)c(Cl)c1)C1CCN(c2ncnc3c2nc2n3CCCCC2)CC1

>  <IC50>
> 100 µM (inactive)

$$$$
>  <Compound>
Cc1[nH]c2c(Cl)c(Cl)ccc2c1CCNC(=O)CCCCCN1C(=O)c2ccccc2C1=O

>  <IC50>
> 100 µM (inactive)

$$$$
>  <Compound>
CCc1ccc2nc(N(CCCN(C)C)C(=O)c3ccc(S(=O)(=O)N4CCc5ccccc5C4)cc3)sc2c1

>  <IC50>
> 100 µM (inactive)

$$$$
>  <Compound>
Cc1cc(C)cc(OCCNC(=O)CCCCCN2C(=O)c3ccccc3C2=O)c1

>  <IC50>
> 100 µM (inactive)

$$$$
>  <Compound>
CCOc1cccc2sc(N(CCCN(C)C)C(=O)c3ccc(S(=O)(=O)N(C)Cc4ccccc4)cc3)nc12

>  <IC50>
> 100 µM (inactive)

$$$$
>  <Compound>
CCN(Cc1ccccc1)S(=O)(=O)c1ccc(C(=O)N(CCCN(C)C)c2nc3cc4c(cc3s2)OCCO4)cc1

>  <IC50>
> 100 µM (inactive)

$$$$
>  <Compound>
O=C1c2cccc3cccc(c23)C(=O)N1CCN1CCN(CC(O)COc2ccccc2)CC1 (centres undefined)

>  <IC50>
> 100 µM (inactive)

$$$$
>  <Compound>
CC(=O)Nc1ccc(OCC(O)CN2CCN(CCN3C(=O)c4cccc5cccc(c45)C3=O)CC2)cc1 (centres undefined)

>  <IC50>
> 100 µM (inactive)

$$$$

* * *

biological target: Caspase-3 (Homo sapiens) (UniProt P42574); assay: inhibition of recombinant caspase-3 activity – biochemical, luminescence, Caspase-Glo 3/7, counter-screen for UBC13 polyubiquitin inhibitor project, SAR follow-up (AID 504680); conditions: recombinant caspase-3, Caspase-Glo luminescence, 60 min
Active and inactive are the calls of the source.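 How the source made its calls: active means IC50 below 100 µM in the TR-FRET assay, unless also active in the caspase-3 counter assay; inactive means the rest, including compounds also active in caspase-3.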
The entries below come with measured IC50 values attached.

>  <Compound>
CC1CCCC(C)N1CCCNC(=O)C1CCCN(c2ncnc3c2nc2n3CCCCC2)C1 (stereo not given)

>  <Target of assay>
Caspase-3 (Homo sapiens) (UniProt P42574)

>  <IC50>
> 100 µM (inactive)

$$$$
>  <Compound>
Cc1ccc(C)c(CN2CCC(CNC(=O)C3CCCN(c4ncnc5c4nc4n5CCCCC4)C3)CC2)c1 (stereo not given)

>  <Target of assay>
Caspase-3 (Homo sapiens) (UniProt P42574)

>  <IC50>
> 100 µM (inactive)

$$$$
>  <Compound>
Cc1ccc(NC(=O)C2CCN(c3ncnc4c3nc3n4CCCCC3)CC2)cc1Cl

>  <Target of assay>
Caspase-3 (Homo sapiens) (UniProt P42574)

>  <IC50>
> 100 µM (inactive)

$$$$
>  <Compound>
O=C(CCCCCN1C(=O)c2cccc3cccc(c23)C1=O)NCc1cccnc1

>  <Target of assay>
Caspase-3 (Homo sapiens) (UniProt P42574)

>  <IC50>
> 100 µM (inactive)

$$$$
>  <Compound>
CC(=O)c1ccccc1OCC(O)CN1CCN(CCN2C(=O)c3cccc4cccc(c34)C2=O)CC1 (stereo not given)

>  <Target of assay>
Caspase-3 (Homo sapiens) (UniProt P42574)

>  <IC50>
> 100 µM (inactive)

$$$$
